ENDPOINT: melting point

Reference set (3 entries):
| COMPOUND STRUCTURE STRING | melting point |
| --- | --- |
| C[C@H](CO)Nc1nc(SCc2cccc(Cl)c2F)nc2nc(N)cnc12 | 224 to 226 °C |
| CC(CO)(CO)Nc1nc(SCc2cccc(F)c2F)nc2nc(N)cnc12 | 220 to 227 °C |
| CC[C@H](CO)Nc1nc(SCc2cccc(F)c2F)nc2nc(N)cnc12 | 185 to 189 °C |

# evaluate next
Recorded melting point of `Nc1cnc2c(NC(CO)CO)nc(SCc3cccc(F)c3F)nc2n1` , please. 251 to 253 °C

Values from patent US7071193B2
